Experiment: orientative acute toxicity
Conditions: in vivo, po
measured.attribute: LD50

> print(dat)
                                   compound     observed
1  CCCN1C[C@H](C(=O)Nc2nccs2)C[C@@H]2c3cccc4[nH]cc(c34)C[C@H]21 [Example 7]  > 300 mg/kg
2  Cc1[nH]c2cccc3c2c1C[C@@H]1[C@@H]3C[C@@H](C(=O)Nc2ccc(Cl)nn2)CN1C [Example 4]  > 300 mg/kg
3  Cc1nnc(NC(=O)[C@@H]2C[C@@H]3c4cccc5[nH]c(C)c(c45)C[C@H]3N(C)C2)s1 [Example 16]  > 800 mg/kg
4  Cc1nnc(NC(=O)[C@@H]2C[C@@H]3c4cccc5[nH]cc(c45)C[C@H]3N(C)C2)s1 [Example 10]  > 600 mg/kg
5  C=CCN1C[C@H](C(=O)Nc2ccc(Cl)nn2)C[C@@H]2c3cccc4[nH]cc(c34)C[C@H]21 [Example 5]  > 600 mg/kg
6  C=CCN1C[C@H](C(=O)Nc2nccs2)C[C@@H]2c3cccc4[nH]cc(c34)C[C@H]21 [Example 6]  > 300 mg/kg
